MEASUREMENT TARGET: T1, recombinant human VEGF165 (human, UniProt P15692 27-191)
T1 construct: mature; Isoform VEGF165 of the entry; also called hVEGF165; hVEGF
T1 sequence (P15692 other isoform, or with tags, fused parts or gaps): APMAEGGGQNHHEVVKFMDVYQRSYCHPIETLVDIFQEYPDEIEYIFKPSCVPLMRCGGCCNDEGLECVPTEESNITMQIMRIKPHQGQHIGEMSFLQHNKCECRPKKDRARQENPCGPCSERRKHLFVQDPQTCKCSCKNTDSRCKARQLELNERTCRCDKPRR
PROTOCOL NOTES: Biacore SPR, VEGF immobilized, pH 5
PROPERTY LABEL: koff (s⁻¹)
Numbers only, in s⁻¹.

# BINDER, koff / s⁻¹
records = [
    ("578min_max T84N_V89A (scFv, the VH entry already carries the changes; tied by name; also called Protein Nr; 1009) scFv: EIVMTQSPSTLSASVGDRVIITCQASEIIHSWLAWYQQKPGKAPKLLIYLASTLASGVPSRFSGSGSGAEFTLTISSLQPDDFATYYCQNVYLASTNGANFGQGTKLTVLGGGGGSGGGGSGGGGSGGGGSEVQLVESGGGLVQPGGSLRLSCTASGFSLTDYYYMTWVRQAPGKGLEWVGFIDPDDDPYYATWAKGRFTISRDNSKNTAYLQMNSLRAEDTAVYYCAGGDHNSGWGLDIWGQGTLVTVSS", 0.000493),
    ("578minmax FW1.4_DHP (scFv, tied by name only) scFv: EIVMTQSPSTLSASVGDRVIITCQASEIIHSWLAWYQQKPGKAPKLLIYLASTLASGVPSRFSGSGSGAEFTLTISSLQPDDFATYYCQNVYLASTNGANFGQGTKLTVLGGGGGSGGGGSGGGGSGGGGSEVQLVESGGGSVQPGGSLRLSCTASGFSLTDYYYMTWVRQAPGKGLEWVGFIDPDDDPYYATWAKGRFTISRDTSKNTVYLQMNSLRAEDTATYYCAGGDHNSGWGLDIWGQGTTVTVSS", 0.000409),
]

With those in mind, consider the next binder.
input: Answer with the recorded koff of 578min_max T84N (scFv, the VH entry already carries T84N; tied by name; also called Protein Nr) scFv: EIVMTQSPSTLSASVGDRVIITCQASEIIHSWLAWYQQKPGKAPKLLIYLASTLASGVPSRFSGSGSGAEFTLTISSLQPDDFATYYCQNVYLASTNGANFGQGTKLTVLGGGGGSGGGGSGGGGSGGGGSEVQLVESGGGLVQPGGSLRLSCTASGFSLTDYYYMTWVRQAPGKGLEWVGFIDPDDDPYYATWAKGRFTISRDNSKNTVYLQMNSLRAEDTAVYYCAGGDHNSGWGLDIWGQGTLVTVSS only.
output: 0.0007
